Source of measurements: patent US20120177664A1

Molecular target: T1, A beta oligomer (synthetic A beta1-40, HCl form, 0.1 mg/ml in PBS, incubated at 37 degrees C for one hour) (UniProt P05067 672-711)
T1 construct: domain: A beta1-40; non-fibrous multimer of the peptide; also called A beta 1-40 oligomer
Test: SPR (Biacore 3000)
Protocol: The analysis was carried out by Surface Plasmon Resonance (SPR) using Biacore 3000 (GE Healthcare Sciences).
Please enter True where kon is greater than or equal to 100000 M⁻¹ s⁻¹, and False where it is lower.

Identify whether the reported kon of the following binder is 100000 M⁻¹ s⁻¹ or greater: IR-112 antibody (antibody, mouse IgG2a, V domains shown, mouse IgG2a) VH: QVTLKESGPGILKPSQTLSLTCSFSGFSLSTSGMGVGWIRQPSGKGLEWLAHIWWDDDKYYNPSLKSQLTISKDTSRNQVFLKITSVDTADTATYYCARRSMITTNDYFDYWGQGTTLTVSS VL: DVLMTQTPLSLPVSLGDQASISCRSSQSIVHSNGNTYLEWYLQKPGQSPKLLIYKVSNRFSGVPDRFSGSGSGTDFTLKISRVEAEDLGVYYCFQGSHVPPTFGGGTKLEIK
False

Identify whether the reported kon of the following binder is 100000 M⁻¹ s⁻¹ or greater: IR-077 antibody (antibody, mouse IgG2a, V domains shown, mouse IgG2a) VH: DVQLVESGGGLVQPGGSRKLSCAASGFTFSSFGMHWVRQAPEKGLEWVAYISSGSSTIYYADTVKGRFTISRDNPKNTLFLQMTSLRSEDTAMYYCARSGYRYSYYAMDYWGQGTSVTVSS VL: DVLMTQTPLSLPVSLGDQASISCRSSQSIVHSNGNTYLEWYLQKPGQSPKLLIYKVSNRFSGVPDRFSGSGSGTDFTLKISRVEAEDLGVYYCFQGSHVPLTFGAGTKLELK
True

Identify whether the reported kon of the following binder is 100000 M⁻¹ s⁻¹ or greater: IR-107 antibody (antibody, mouse IgG2b, V domains shown, mouse IgG2b) VH: DVQLVESGGGLVQPGGSRKLSCAASGFTFSSFGMHWVRQAPEKGLEWVAYISSGSSTIYYADTVKGRFTISRDNPKNTLFLQMTSLRSEDTAMYYCARYGYAMDYWGQGTSVTVSS VL: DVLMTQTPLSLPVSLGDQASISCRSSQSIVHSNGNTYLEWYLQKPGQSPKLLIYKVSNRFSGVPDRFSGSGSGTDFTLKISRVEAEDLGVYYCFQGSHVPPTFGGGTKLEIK
True

Identify whether the reported kon of the following binder is 100000 M⁻¹ s⁻¹ or greater: IR-152 antibody (antibody, mouse IgG2b, V domains shown, mouse IgG2b) VH: DVQLVESGGGLVQPGGSRKLSCAASGFTFSSFGMHWVRQAPEKGLEWVAYISSGSSTIYYADTVKGRFTISRDNPKNTLFLQMTSLRSEDTAMYYCARGGHVGAMDYWGQGTSVTVSS VL: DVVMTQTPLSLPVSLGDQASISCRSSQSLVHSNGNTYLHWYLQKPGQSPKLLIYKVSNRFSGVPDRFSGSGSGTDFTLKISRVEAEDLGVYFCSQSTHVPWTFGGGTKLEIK
False

Identify whether the reported kon of the following binder is 100000 M⁻¹ s⁻¹ or greater: IR-063 antibody (antibody, mouse IgG2b, V domains shown, mouse IgG2b) VH: DVQLVESGGGLVQPGGSRKLSCAASGFTFSSFGMHWVRQAPEKGLEWVAYISSGSSTIYYADTVKGRFTISRDNPKNTLFLQMTSLRSEDTAMYYCAREGDFDYWGQGTTLTVSS VL: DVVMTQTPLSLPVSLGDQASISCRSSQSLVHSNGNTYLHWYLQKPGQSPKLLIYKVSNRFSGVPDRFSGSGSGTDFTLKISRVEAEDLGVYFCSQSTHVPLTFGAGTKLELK
True

Identify whether the reported kon of the following binder is 100000 M⁻¹ s⁻¹ or greater: IR-067 antibody (antibody, mouse IgG2b, V domains shown, mouse IgG2b) VH: DVQLVESGGGLVQPGGSRKLSCAASGFTFSSFGMHWVRQAPEKGLEWVAYISSGSSTIYYADTVKGRFTISRDNPKNTLFLQMTSLRSEDTAMYYCARSGGNYLMDYWGQGTSVTVSS VL: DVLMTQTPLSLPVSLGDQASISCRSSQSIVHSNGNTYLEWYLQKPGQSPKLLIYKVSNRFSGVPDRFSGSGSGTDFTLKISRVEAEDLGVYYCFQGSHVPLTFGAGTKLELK
True

Identify whether the reported kon of the following binder is 100000 M⁻¹ s⁻¹ or greater: IR-118 antibody (antibody, mouse IgG2a, V domains shown, mouse IgG2a) VH: QVQLKESGPGLVAPSQSLSITCTISGFSLTSYGVHWVRQPPGKGLEWLVVIWSDGSTTYNSALKSRLSISKDNSKSQLFLKMNSLQTDDTAMYYCARHSYRYGLMDYWGQGTSVTVSS VL: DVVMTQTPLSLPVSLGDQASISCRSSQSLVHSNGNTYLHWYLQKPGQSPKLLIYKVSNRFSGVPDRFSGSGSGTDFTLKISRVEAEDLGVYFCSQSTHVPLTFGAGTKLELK
False

Identify whether the reported kon of the following binder is 100000 M⁻¹ s⁻¹ or greater: IR-124 antibody (antibody, mouse IgG2a, V domains shown, mouse IgG2a) VH: DVQLVESGGGLVQPGGSRKLSCAASGFTFSSFGMHWVRQAPEKGLEWVAYISSGSSTIYYADTVKGRFTISRDNPKNTLFLQMTSLRSEDTAMYYCAIYYYGSSYYWGQGTTLTVSS VL: DVLMTQTPLSLPVSLGDQASISCRSSQSIVHSNGNTYLEWYLQKPGQSPKLLIYKVSNRFSGVPDRFSGSGSGTDFTLKISRVEAEDLGVYYCFQGSHVPPTFGAGTKLELK
False

Identify whether the reported kon of the following binder is 100000 M⁻¹ s⁻¹ or greater: IR-060 antibody (antibody, mouse IgG2a, V domains shown, mouse IgG2a) VH: DVQLVESGGGLVQPGGSRKLSCAASGFTFSSFGMHWVRQAPEKGLEWVAYISSGSSTIYYADTVKGRFTISRDNPKNTLFLQMTSLRSEDTAMYYCARGGNYLRYYAMDYWGQGTSVTVSS VL: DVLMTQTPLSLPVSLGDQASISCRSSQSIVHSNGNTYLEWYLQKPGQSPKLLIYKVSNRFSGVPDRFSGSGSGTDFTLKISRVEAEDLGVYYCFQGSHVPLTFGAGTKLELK
False

Identify whether the reported kon of the following binder is 100000 M⁻¹ s⁻¹ or greater: IR-125 antibody (antibody, mouse IgG2b, V domains shown, mouse IgG2b) VH: DVQLVESGGGLVQPGGSRKLSCAASGFTFSSFGMHWVRQAPEKGLEWVAYISSGSSTIYYADTVKGRFTISRDNPKNTLFLQMTSLRSEDTAMYYCARAGGYSLSYAMDYWGQGTSVTVSS VL: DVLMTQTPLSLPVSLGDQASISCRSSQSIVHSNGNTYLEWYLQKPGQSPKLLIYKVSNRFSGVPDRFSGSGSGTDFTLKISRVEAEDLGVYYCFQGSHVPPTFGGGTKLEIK
False
